biological target: NUAK family SNF1-like kinase 1 (Homo sapiens); details: at 1 µM
Description: GSK_PKIS: ARK5 mean inhibition at 1 uM [Nanosyn]
Record rule met whenever inhibition is at 10% or higher; record rule not met when lower.

{"Structure as smiles": "COc1cc(C=NNc2ncnc3c2cnn3-c2ccccc2)ccc1O", "Cat": "rule met"}
{"Structure as smiles": "Cc1nn(C)c2cc(N(C)c3ccnc(Nc4cccc(S(N)(=O)=O)c4)n3)ccc12", "Cat": "rule met"}
{"Structure as smiles": "O=C(Nc1n[nH]c2nc(-c3ccco3)c(Br)cc12)C1CC1", "Cat": "rule not met"}
{"Structure as smiles": "CS(=O)(=O)CCNCc1ccc(-c2ccc3ncnc(Nc4ccc(OCc5ccccc5)c(Cl)c4)c3c2)o1", "Cat": "rule not met"}
{"Structure as smiles": "O=C1NC(=O)C(c2ccccc2Cl)=C1Nc1cccc(O)c1", "Cat": "rule met"}
{"Structure as smiles": "CN(C)c1cc2c(Nc3ccc4nc(Cc5ccccc5)[nH]c4c3)ncnc2cn1", "Cat": "rule not met"}
{"Structure as smiles": "NS(=O)(=O)c1ccc(N/N=C2\\C(=O)Nc3ccc(C(=O)NCCc4c[nH]cn4)cc32)cc1", "Cat": "rule met"}
{"Structure as smiles": "CCn1c(-c2nonc2N)nc2c(N3CCCC3)nccc21", "Cat": "rule not met"}
{"Structure as smiles": "NC(=O)c1cccc(Nc2nccc(Nc3cccc4[nH]ncc34)n2)c1", "Cat": "rule met"}
{"Structure as smiles": "CCCN1CCC(Oc2cc(Nc3nc(Nc4cccc(F)c4C(N)=O)c4cc[nH]c4n3)c(OC)cc2Cl)CC1", "Cat": "rule not met"}

###

biological target: Serine/threonine-protein kinase Sgk1 (Homo sapiens) (UniProt O00141); details: at 1 µM;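 note: mean percent inhibition of SGK1, from the GSK PKIS screening panel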
Sequence (O00141 whole entry): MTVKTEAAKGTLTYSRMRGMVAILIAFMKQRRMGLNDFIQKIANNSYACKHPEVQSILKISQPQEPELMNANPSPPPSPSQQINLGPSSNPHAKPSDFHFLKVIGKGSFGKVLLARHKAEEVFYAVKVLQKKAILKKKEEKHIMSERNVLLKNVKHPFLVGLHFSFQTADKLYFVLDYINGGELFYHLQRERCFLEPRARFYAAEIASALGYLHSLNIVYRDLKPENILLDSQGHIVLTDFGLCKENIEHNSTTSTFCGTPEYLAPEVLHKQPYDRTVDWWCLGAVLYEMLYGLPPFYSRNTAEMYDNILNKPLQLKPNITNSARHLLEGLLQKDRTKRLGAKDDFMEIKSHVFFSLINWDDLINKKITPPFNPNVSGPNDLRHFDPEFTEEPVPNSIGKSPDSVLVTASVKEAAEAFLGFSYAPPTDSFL

{"Compound": "CS(=O)(=O)CCNCc1ccc(-c2ccc3ncnc(Nc4ccc(OCc5ccccc5)c(Cl)c4)c3c2)o1", "inhibition [%]": 1.58}
{"Compound": "COc1cc2ncn(-c3cc(OCc4ccccc4Cl)c(C(N)=O)s3)c2cc1OC", "inhibition [%]": 1.67}
{"Compound": "COc1cc2ncn(-c3cc(OCc4ccccc4C(F)(F)F)c(C(N)=O)s3)c2cc1OC", "inhibition [%]": 1.49}
{"Compound": "CC1=C(C(=O)Nc2ccc3[nH]ncc3c2)C(c2ccc(F)cc2)NC(=O)N1 (stereo not given)", "inhibition [%]": 7.18}
{"Compound": "CN(C)c1cc2c(Nc3ccc4nc(Cc5ccccc5)[nH]c4c3)ncnc2cn1", "inhibition [%]": 2.79}

###

target: MAP/microtubule affinity-regulating kinase 4 (Homo sapiens) (UniProt Q96L34); settings: at 1 µM;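 note: reported value is a mean MARK4 inhibition at 1 µM, taken from the GSK PKIS screening set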
Sequence (Q96L34 whole entry): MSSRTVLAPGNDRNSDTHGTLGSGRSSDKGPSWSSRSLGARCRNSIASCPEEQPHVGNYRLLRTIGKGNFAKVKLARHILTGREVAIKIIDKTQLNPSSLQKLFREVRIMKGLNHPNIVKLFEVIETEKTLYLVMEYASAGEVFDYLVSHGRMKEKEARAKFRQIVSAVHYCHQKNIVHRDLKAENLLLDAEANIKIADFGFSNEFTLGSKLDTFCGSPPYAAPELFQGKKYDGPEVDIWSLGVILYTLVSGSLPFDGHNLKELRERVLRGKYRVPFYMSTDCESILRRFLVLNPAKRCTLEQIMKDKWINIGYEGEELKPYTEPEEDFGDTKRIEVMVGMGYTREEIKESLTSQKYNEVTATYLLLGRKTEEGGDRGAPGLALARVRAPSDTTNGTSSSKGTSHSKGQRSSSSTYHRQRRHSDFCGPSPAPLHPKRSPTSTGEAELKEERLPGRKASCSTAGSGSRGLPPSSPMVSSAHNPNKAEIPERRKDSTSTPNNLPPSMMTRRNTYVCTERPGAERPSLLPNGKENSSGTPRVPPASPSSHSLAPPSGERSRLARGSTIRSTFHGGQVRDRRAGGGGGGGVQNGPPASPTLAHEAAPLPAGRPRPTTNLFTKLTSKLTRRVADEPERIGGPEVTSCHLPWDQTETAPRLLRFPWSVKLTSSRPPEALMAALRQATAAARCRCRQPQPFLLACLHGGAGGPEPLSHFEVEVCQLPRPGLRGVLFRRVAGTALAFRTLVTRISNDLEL
Measured inhibition of individual entries
Recorded endpoint: inhibition (%)

{"Structure as smiles": "CS(=O)(=O)Nc1ccc(N/C=C2\\C(=O)Nc3ccccc32)cc1", "Obs value": 18.9}
{"Structure as smiles": "Fc1cccc(COc2ccc(Nc3ncnc4cc(-c5ccc[nH]5)sc34)cc2Cl)c1", "Obs value": 1.57}
{"Structure as smiles": "N#Cc1c(NC(=O)c2cccc3ccccc23)sc2c1CCCC2", "Obs value": 1.96}
{"Structure as smiles": "COc1cc(C=NNc2ncnc3c2cnn3-c2ccccc2)ccc1O", "Obs value": 11.3}
{"Structure as smiles": "NCc1ccc(-c2nc(-c3ccc(Cl)c(O)c3)c(-c3ccncc3)[nH]2)cc1", "Obs value": 2.57}
{"Structure as smiles": "CCn1c(-c2nonc2N)nc2cncc(C(=O)N3CCNCC3)c21", "Obs value": 1.48}
{"Structure as smiles": "O=C1NC(=O)C(c2ccc(Cl)cc2)=C1Nc1ccc(Cl)c(C(=O)O)c1", "Obs value": 1.71}
{"Structure as smiles": "COc1ccc(-c2coc3ncnc(N)c23)cc1", "Obs value": 2.28}
{"Structure as smiles": "Cc1cccc(-c2n[nH]cc2-c2ccc3ncccc3n2)n1", "Obs value": -0.68}
{"Structure as smiles": "CCCN1CCC=C(c2ccc(Nc3nc(Nc4ccccc4C(N)=O)c4cc[nH]c4n3)c(C)c2)C1", "Obs value": 13.7}
{"Structure as smiles": "COc1cc2ncn(-c3cc(O[C@@H](C)c4ccccc4Cl)c(C(N)=O)s3)c2cc1OC", "Obs value": 7.69}

###

target: Leucine-rich repeat serine/threonine-protein kinase 2 (Homo sapiens); details: at 0.1 µM;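 note: reported values are averaged percent inhibition of LRRK2 kinase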
Measured inhibition of individual entries
Recorded endpoint: inhibition (%)

{"Compound": "CCCN1CCC(Oc2cc(Nc3nc(Nc4cccc(F)c4C(N)=O)c4cc[nH]c4n3)c(OC)cc2Cl)CC1", "Obs value": 11.5}
{"Compound": "Nc1ncnc2occ(-c3ccc(NC(=O)Nc4cccc(C(F)(F)F)c4)cc3)c12", "Obs value": 17.1}
{"Compound": "CC1=C(C(=O)Nc2ccc3[nH]ncc3c2)C(c2ccc3ccccc3c2)CC(=O)N1 (stereo not given)", "Obs value": 4.73}
{"Compound": "O=C1Nc2ccc(C(=O)c3ccco3)cc2C1=Cc1cc(Cl)c(O)c(Cl)c1", "Obs value": 22.8}
{"Compound": "CCn1c(-c2nonc2N)nc2cncc(C(=O)N3CCNCC3)c21", "Obs value": 1.69}
{"Compound": "O=C(Nc1n[nH]c2nc(-c3ccco3)c(Br)cc12)C1CC1", "Obs value": 2.41}
{"Compound": "COC(=O)Nc1nc2cc(Oc3ccc(NC(=O)Nc4cccc(C(=O)O)c4)cc3)ccc2[nH]1", "Obs value": -4.47}
{"Compound": "Cn1cc(C=C2C(=O)Nc3cccnc32)c2ccccc21", "Obs value": 8.55}
{"Compound": "NS(=O)(=O)c1ccc(N/N=C2\\C(=O)Nc3ccc(C(=O)NCCc4c[nH]cn4)cc32)cc1", "Obs value": 10.3}
{"Compound": "Cc1cc(O)cc(C)c1/C=C/c1cncc(-c2nn[nH]n2)c1", "Obs value": 1.54}
{"Compound": "COc1ccc(-c2nn3ncccc3c2-c2ccnc(Nc3ccc(Cl)c(C(F)(F)F)c3)n2)cc1", "Obs value": 0.37}
{"Compound": "CC1=C(C(=O)Nc2ccc3[nH]ncc3c2)C(c2ccc(F)cc2)NC(=O)N1 (stereo not given)", "Obs value": 2.24}
{"Compound": "Cc1nnc(-c2ccc(C)c(-c3ccc(C(=O)Nc4cccc(C#N)c4)cc3)c2)o1", "Obs value": 0.06}
{"Compound": "COc1cccc(-n2ncc3c(N/N=C/c4cccc(F)c4)ncnc32)c1", "Obs value": -3.46}
{"Compound": "CCCN1CCC=C(c2ccc(Nc3nc(Nc4ccccc4C(N)=O)c4cc[nH]c4n3)c(C)c2)C1", "Obs value": 77.6}
{"Compound": "NCc1ccc(-c2nc(-c3ccc(Cl)c(O)c3)c(-c3ccncc3)[nH]2)cc1", "Obs value": 1.04}
{"Compound": "COc1cc(C=NNc2ncnc3c2cnn3-c2ccccc2)ccc1O", "Obs value": 7.59}
{"Compound": "CCn1c(-c2nonc2N)nc2c(C#CC(C)(C)O)nc(CN3CCCC3)cc21", "Obs value": -0.1}
{"Compound": "Cc1cccc(-c2n[nH]cc2-c2ccc3ncccc3n2)n1", "Obs value": 1.67}
{"Compound": "Fc1cccc(COc2ccc(Nc3ncnc4sc(-c5cccs5)cc34)cc2Cl)c1", "Obs value": 1.83}

###

molecular target: Casein kinase I isoform gamma-1 (Homo sapiens); conditions: at 0.1 µM;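 note: reported as mean inhibition, part of GSK PKIS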

{"Molecule": "CC(C)=Cc1cccc2c1/C(=N/Nc1ccc(S(N)(=O)=O)cc1)C(=O)N2", "inhibition, %": 0.52}
{"Molecule": "CC1=C(C(=O)Nc2ccc3[nH]ncc3c2)C(c2ccc3ccccc3c2)CC(=O)N1 (stereo not given)", "inhibition, %": 1.69}
{"Molecule": "CCn1c(-c2nonc2N)nc2c(C#CC(C)(C)O)nc(CN3CCCC3)cc21", "inhibition, %": -0.23}
{"Molecule": "O=C1NC(=O)C(N2CCc3ccccc32)=C1c1ccc(Cl)cc1", "inhibition, %": 4.48}
{"Molecule": "CCn1c(-c2nonc2N)nc2c(C#CC(C)(C)O)nc(OC[C@@H](N)c3ccccc3)cc21", "inhibition, %": -1.79}
{"Molecule": "COc1cc(C=NNc2ncnc3c2cnn3-c2ccccc2)ccc1O", "inhibition, %": 1.27}
{"Molecule": "CS(=O)(=O)CCNCc1nc(-c2ccc3ncnc(Nc4ccc(F)c(Cl)c4)c3c2)cs1", "inhibition, %": 1.14}
{"Molecule": "Fc1cccc(COc2ccc(Nc3ncnc4sc(-c5cccs5)cc34)cc2Cl)c1", "inhibition, %": 0.39}
{"Molecule": "Cc1ccc(NC(=O)c2ccnc(N3CCCC3)c2)cc1-c1ccc(C(=O)NCC2CC2)cc1", "inhibition, %": 0.99}
{"Molecule": "CN(C)c1cc2c(Nc3ccc4nc(Cc5ccccc5)[nH]c4c3)ncnc2cn1", "inhibition, %": 4.21}
